target: human calcitonin receptor (CTR) (Homo sapiens, UniProt P30988); assay: Calcitonin Receptor (CTR) cAMP Assay; conditions: COS7-human CTR Clone #2 stable cell line, cAMP dynamic 2 kit, 30 min; read-out: Calcitonin Receptor cAMP Stimulation Activity: EC50
Sequence (P30988 25-474): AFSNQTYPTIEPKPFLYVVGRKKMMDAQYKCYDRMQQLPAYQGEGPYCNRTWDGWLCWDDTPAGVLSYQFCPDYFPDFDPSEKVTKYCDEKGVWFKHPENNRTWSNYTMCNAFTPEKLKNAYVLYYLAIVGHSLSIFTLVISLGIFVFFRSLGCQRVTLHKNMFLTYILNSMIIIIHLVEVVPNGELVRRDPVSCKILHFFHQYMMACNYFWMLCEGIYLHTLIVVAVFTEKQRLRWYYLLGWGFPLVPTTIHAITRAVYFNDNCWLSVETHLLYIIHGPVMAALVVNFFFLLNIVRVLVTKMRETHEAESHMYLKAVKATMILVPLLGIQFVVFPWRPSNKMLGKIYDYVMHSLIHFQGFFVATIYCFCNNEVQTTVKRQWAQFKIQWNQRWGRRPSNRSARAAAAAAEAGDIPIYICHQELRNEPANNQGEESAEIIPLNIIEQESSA
pEC50: −log10 of the molar value.

>  <molecule>
COc1cccc2c1CC[C@H]2Nc1nccc2cc(-c3c4c(nc(CCc5cccc(C(F)(F)F)c5)c3-c3n[nH]c(=O)o3)[C@@H]3CCCN3C4=O)sc12

>  <pEC50>
8.82

$$$$
>  <molecule>
N#Cc1ccc(Cn2ccc3cc(-c4c(-c5n[nH]c(=O)o5)c(CCc5ccc(F)cc5)nc5c4c(=O)n4n5CCC4)cnc32)cc1F

>  <pEC50>
8.74

$$$$
>  <molecule>
CC(c1ccc(C#N)cn1)n1c(=O)oc2cc(-c3c4c(nc(CCc5ccc(F)cc5)c3-c3n[nH]c(=O)o3)[C@@H]3CCCN3C4=O)ccc21 (stereo partly drawn)

>  <pEC50>
9.14

$$$$

* * *

molecular target: human calcitonin receptor (CTR) (Homo sapiens); assay: Calcitonin Receptor (CTR) cAMP Assay; conditions: COS7-human CTR Clone #2 stable cell line, cAMP dynamic 2 kit, 30 min; read-out: Calcitonin Receptor cAMP Stimulation Activity: EC50

>  <smiles.representation>
COc1cccc2c1CC[C@H]2Nc1nccc2cc(-c3c4c(nc(CCc5cccc(C(F)(F)F)c5)c3-c3noc(=O)[nH]3)[C@@H]3CCCN3C4=O)sc12

>  <measurement.unit>
nM

>  <EC50>
0.628

$$$$
>  <smiles.representation>
O=C1c2c(nc(CCc3ccc(F)cc3)c(-c3noc(=O)[nH]3)c2-c2cc3ccnc(NCc4ccc(Cl)c(F)c4)c3s2)[C@@H]2CCCN12

>  <measurement.unit>
nM

>  <EC50>
2.8

$$$$
>  <smiles.representation>
COc1cccc2c1CC(F)(F)[C@@H]2Nc1nccc2cc(-c3c4c(nc(CCc5ccc(F)cc5)c3-c3n[nH]c(=O)o3)[C@@H]3CCCN3C4=O)sc12

>  <measurement.unit>
nM

>  <EC50>
7.28

$$$$
>  <smiles.representation>
N#Cc1cc2c(cc1F)[C@H](Nc1nccc3cc(-c4c5c(nc(CCc6ccc(F)cc6)c4-c4n[nH]c(=O)o4)[C@@H]4CCCN4C5=O)sc13)CC2

>  <measurement.unit>
nM

>  <EC50>
0.539

$$$$

* * *

biological target: human calcitonin receptor (CTR) (Homo sapiens); assay: Calcitonin Receptor (CTR) cAMP Assay; details: COS7-human CTR Clone #2 stable cell line, cAMP dynamic 2 kit, 30 min; read-out: Calcitonin Receptor cAMP Stimulation Activity: EC50

>  <smiles.representation>
O=C1c2c(nc(CCc3ccc(F)cc3)c(-c3n[nH]c(=O)o3)c2-c2cc3ccnc(N[C@@H]4CCc5ccccc54)c3s2)[C@@H]2CCCN12

>  <EC50, nM>
1.08

$$$$
>  <smiles.representation>
COc1cccc2c1CC[C@H]2Nc1nc(C(F)F)cc2cc(-c3c4c(nc(CCc5ccc(F)cc5)c3-c3n[nH]c(=O)o3)[C@@H]3CCCN3C4=O)sc12

>  <EC50, nM>
0.223

$$$$
>  <smiles.representation>
COc1cccc2c1CC[C@H]2Nc1nccc2cc(-c3c4c(nc(CCC5CCCCC5)c3-c3n[nH]c(=O)o3)[C@@H]3CCCN3C4=O)sc12

>  <EC50, nM>
2.06

$$$$
>  <smiles.representation>
COc1cccc2c1CC[C@H]2Nc1nccc2cc(-c3c(-c4n[nH]c(=O)o4)c(CCc4ccc(F)cc4)nc4c3S(=O)(=O)C[C@@H]4C(C)C)sc12

>  <EC50, nM>
177

$$$$

* * *

biological target: COS-7/AMY3 (human calcitonin receptor (CTR) and RAMP3) (Homo sapiens, UniProt O60896+P30988); construct: expressed in transfected cells; host or cells: COS-7; assay: Amylin Receptor cAMP Assay II; assay type: cell-based; details: values marked **: Amylin Receptor cAMP Assay II; COS-7/AMY3 cells, cAMP dynamic 2 kit, 30 min; read-out: Amylin Receptor cAMP Stimulation Activity: EC50
Sequence (P30988 25-474): as above
Sequence (O60896 24-148): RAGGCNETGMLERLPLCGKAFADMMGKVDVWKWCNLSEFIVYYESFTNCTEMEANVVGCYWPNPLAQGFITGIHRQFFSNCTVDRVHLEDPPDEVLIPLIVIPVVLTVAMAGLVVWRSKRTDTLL
pEC50: −log10 of the molar value.
assay.readout: pEC50

>  <smiles.representation>
COc1c(F)ccc2c1CC[C@H]2Nc1nc(C)cc2cc(-c3c4c(nc(CCc5ccc(F)cc5)c3-c3n[nH]c(=O)o3)[C@@H]3CCCN3C4=O)sc12

>  <observed.value>
9.22

$$$$
>  <smiles.representation>
COc1cccc2c1CC[C@H]2Nc1nccc2cc(-c3c4c(nc(CCc5ccc(F)cc5)c3-c3n[nH]c(=O)s3)[C@@H]3CCCN3C4=O)sc12

>  <observed.value>
7.84

$$$$
>  <smiles.representation>
N#Cc1ccc(Cn2c(=O)oc3cc(-c4c5c(nc(CCC6CCOCC6)c4-c4cc(=O)[nH]o4)[C@@H]4CCCN4C5=O)ccc32)cc1F

>  <observed.value>
6.28

$$$$
>  <smiles.representation>
O=C1c2c(nc(CCc3ccc(F)cc3)c(-c3noc(=O)[nH]3)c2-c2cc3ccnc(OCc4ccc(F)c(F)c4)c3s2)[C@@H]2CCCN12

>  <observed.value>
7.04

$$$$

* * *

molecular target: COS-7/AMY3 (human calcitonin receptor (CTR) and RAMP3) (Homo sapiens, UniProt O60896+P30988); construct: expressed in transfected cells; host or cells: COS-7; experiment: Amylin Receptor cAMP Assay II; type: cell-based; conditions: values marked **: Amylin Receptor cAMP Assay II; COS-7/AMY3 cells, cAMP dynamic 2 kit, 30 min; read-out: Amylin Receptor cAMP Stimulation Activity: EC50
pEC50: −log10 of the molar value.
assay.readout: pEC50

>  <molecule>
COc1cccc2c1CC[C@H]2Nc1nccc2cc(-c3c4c(nc(CCc5cccc(C(F)(F)F)c5)c3-c3noc(=O)[nH]3)[C@@H]3CCCN3C4=O)sc12

>  <assay.readout>
pEC50

>  <observed.value>
7.74

$$$$
>  <molecule>
O=C1c2c(nc(CCc3ccc(F)cc3)c(-c3n[nH]c(=O)o3)c2-c2cc3ccnc(N[C@@H]4CCc5c(F)cc(F)cc54)c3s2)C23CC(CN12)C3

>  <assay.readout>
pEC50

>  <observed.value>
9.50

$$$$
>  <molecule>
COc1c(F)ccc2c1CC[C@H]2Nc1nccc2sc(-c3c4c(nc(CCc5ccc(F)cc5)c3-c3n[nH]c(=O)o3)C35CC(CN3C4=O)C5)cc12

>  <assay.readout>
pEC50

>  <observed.value>
8.75

$$$$
>  <molecule>
O=C1c2c(nc(CCc3ccc(F)cc3)c(-c3n[nH]c(=O)o3)c2-c2cc3ccnc(N[C@@H]4CCc5c4ccc(F)c5OC(F)F)c3s2)C23CC(CN12)C3

>  <assay.readout>
pEC50

>  <observed.value>
9.68

$$$$
>  <molecule>
O=C1c2c(nc(CCc3ccc(F)cc3)c(-c3n[nH]c(=O)o3)c2-c2cc3ccnc(N[C@@H]4CCc5cc(F)c(F)cc54)c3s2)C23CC(CN12)C3

>  <assay.readout>
pEC50

>  <observed.value>
9.74

$$$$
>  <molecule>
O=c1cc(-c2c(CCC3CCOCC3)nc3c(c2-c2cc4ccnc(N[C@@H]5CCc6ncccc65)c4s2)S(=O)(=O)N2CCC[C@@H]32)o[nH]1

>  <assay.readout>
pEC50

>  <observed.value>
6.00

$$$$
>  <molecule>
COc1cccc2c1CC[C@H]2Nc1nccc2cc(-c3c4c(nc(CCc5ccc(F)cc5)c3-c3n[nH]c(=O)o3)[C@@H]3COCCN3C4=O)sc12 [Compound 235]

>  <assay.readout>
pEC50

>  <observed.value>
7.74

$$$$
>  <molecule>
COc1cccc2c1CC[C@H]2Nc1nccc2cc(-c3c(-c4n[nH]c(=O)o4)c(CCc4ccc(F)cc4)nc4c3S(=O)(=O)CC4C(C)C)sc12 (some centres unmarked)

>  <assay.readout>
pEC50

>  <observed.value>
7.26

$$$$
>  <molecule>
COc1c(F)ccc2c1CC[C@H]2Nc1nc(C(F)F)cc2cc(-c3c4c(nc(CCc5ccc(F)cc5)c3-c3n[nH]c(=O)o3)C35CC(CN3C4=O)C5)sc12

>  <assay.readout>
pEC50

>  <observed.value>
9.46

$$$$
>  <molecule>
N#Cc1ccc(Cn2ccc3cc(-c4c5c(nc(CCc6ccc(F)cc6)c4-c4n[nH]c(=O)o4)C4CCCN4C5=O)cnc32)cc1F (centres unmarked)

>  <assay.readout>
pEC50

>  <observed.value>
6.89

$$$$
>  <molecule>
O=C1c2c(nc(CCc3ccc(F)cc3)c(-c3n[nH]c(=O)o3)c2-c2ccc3c(Cc4ccc(F)cc4F)noc3c2)[C@@H]2CCCN12

>  <assay.readout>
pEC50

>  <observed.value>
6.06

$$$$
>  <molecule>
COc1cccc2c1CC[C@H]2Nc1nccc2cc(-c3c4c(nc(CCc5ccc(Cl)cc5)c3-c3n[nH]c(=O)o3)[C@@H]3CCCN3C4=O)sc12

>  <assay.readout>
pEC50

>  <observed.value>
7.74

$$$$
>  <molecule>
N#Cc1ccc(Cn2ccc3cc(-c4c(-c5cc(=O)[nH]o5)c(CCC5CCOCC5)nc5c4S(=O)(=O)N4CCC[C@@H]54)ccc32)cc1F

>  <assay.readout>
pEC50

>  <observed.value>
5.88

$$$$
>  <molecule>
O=C1c2c(nc(CCc3ccc(F)cc3)c(-c3n[nH]c(=O)o3)c2-c2cc3ccnc(N[C@@H]4CCc5cc(Cl)ccc54)c3s2)C23CC(CN12)C3

>  <assay.readout>
pEC50

>  <observed.value>
8.75

$$$$
>  <molecule>
COc1cccc2c1CC[C@H]2Nc1nccc2cc(-c3c4c(nc(C(C)C)c3-c3n[nH]c(=O)o3)[C@@H]3CCCN3C4=O)sc12

>  <assay.readout>
pEC50

>  <observed.value>
6.64

$$$$
>  <molecule>
O=C1c2c(nc(CCc3ccc(F)cc3)c(-c3n[nH]c(=O)o3)c2-c2cc3ccnc(Cc4coc5ccccc45)c3s2)[C@@H]2CCCN12

>  <assay.readout>
pEC50

>  <observed.value>
5.38

$$$$
>  <molecule>
COc1c(F)ccc2c1CC[C@H]2Nc1ccnc2cc(-c3c4c(nc(CCc5ccc(F)cc5)c3-c3n[nH]c(=O)o3)C35CC(CN3C4=O)C5)sc12

>  <assay.readout>
pEC50

>  <observed.value>
8.50

$$$$
